The origin of these recorded values is patent US7657380.

- STUDY_TARGET: T1, human CD30 (commercial, conjugated to digoxigenin) (human, UniProt P28908 19-379, limits assumed, conjugated to digoxigenin (DIG))
- T1 sequence (looked up): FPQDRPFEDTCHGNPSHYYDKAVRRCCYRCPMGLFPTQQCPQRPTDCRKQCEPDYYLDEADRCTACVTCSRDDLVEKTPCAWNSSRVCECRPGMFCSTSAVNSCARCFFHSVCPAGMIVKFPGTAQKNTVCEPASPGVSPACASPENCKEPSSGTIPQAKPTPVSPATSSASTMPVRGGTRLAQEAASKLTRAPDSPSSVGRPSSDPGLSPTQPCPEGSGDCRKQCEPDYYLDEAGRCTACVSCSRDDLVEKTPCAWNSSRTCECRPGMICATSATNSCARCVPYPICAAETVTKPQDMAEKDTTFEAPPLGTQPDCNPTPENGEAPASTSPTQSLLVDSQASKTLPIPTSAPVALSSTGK
- ASSAY_NAME: AlphaScreen competition
RECORDED_METRIC: Fold IC50 vs H3/L3 (fold)

BINDER	RECORDED_METRIC	EXPERIMENTAL_VALUE
AC10 H3.52/L3 (antibody, IgG1, name in Kabat numbering, V domains shown) VH: QIQLVQSGPEVKKPGASVKVSCKASGYTFTDYYITWVRQAPGQGLEWMGWIYPGSGNTKYNEKFQGRFVFSVDTSASTAYLQISSLKAEDTAVYFCAHYGNYWFAYWGQGTLVTVSS VL: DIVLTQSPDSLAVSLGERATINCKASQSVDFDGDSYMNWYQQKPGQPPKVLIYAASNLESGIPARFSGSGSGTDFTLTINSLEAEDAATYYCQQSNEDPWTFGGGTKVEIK	Fold IC50 vs H3/L3	1.24
AC10 H3.64/L3 (antibody, IgG1, name in Kabat numbering, V domains shown) VH: QIQLVQSGPEVKKPGASVKVSCKASGYTFTDYYITWVRQAPGQGLEWMGWIYPGSGNTKYNEKFQGRFVFSVDTSASTAYLQISSLKAEDTAVYFCANYGNYWFAYWGRGTLVTVSS VL: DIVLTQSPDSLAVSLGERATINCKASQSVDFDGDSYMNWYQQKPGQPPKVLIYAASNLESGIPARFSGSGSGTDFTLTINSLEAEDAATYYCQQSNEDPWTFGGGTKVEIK	Fold IC50 vs H3/L3	1.28
AC10 H3.7/L3 (antibody, IgG1, name in Kabat numbering, V domains shown) VH: QIQLVQSGPEVKKPGASVKVSCKVSGYTFTDYYITWVRQAPGQGLEWMGWIYPGSGNTKYNEKFQGRFVFSVDTSASTAYLQISSLKAEDTAVYFCANYGNYWFAYWGQGTLVTVSS VL: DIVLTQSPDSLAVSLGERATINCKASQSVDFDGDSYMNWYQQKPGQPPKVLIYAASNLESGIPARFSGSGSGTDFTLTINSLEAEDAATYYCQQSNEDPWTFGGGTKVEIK	Fold IC50 vs H3/L3	4.45
AC10 H3.49/L3 (antibody, IgG1, name in Kabat numbering, V domains shown) VH: QIQLVQSGPEVKKPGASVKVSCKASGYTFTDYYITWVRQAPGQGLEWMGWIYPGSGNTKYNEKFQGRFVFSVDTSASTAYLQISSLKAEDTAVYFCTNYGNYWFAYWGQGTLVTVSS VL: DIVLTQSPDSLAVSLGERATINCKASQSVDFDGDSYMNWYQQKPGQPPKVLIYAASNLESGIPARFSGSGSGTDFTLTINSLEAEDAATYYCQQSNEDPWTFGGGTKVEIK	Fold IC50 vs H3/L3	0.38
AC10 H3.6/L3 (antibody, IgG1, name in Kabat numbering, V domains shown) VH: QIQLVQSGPEVKKPGTSVKVSCKASGYTFTDYYITWVRQAPGQGLEWMGWIYPGSGNTKYNEKFQGRFVFSVDTSASTAYLQISSLKAEDTAVYFCANYGNYWFAYWGQGTLVTVSS VL: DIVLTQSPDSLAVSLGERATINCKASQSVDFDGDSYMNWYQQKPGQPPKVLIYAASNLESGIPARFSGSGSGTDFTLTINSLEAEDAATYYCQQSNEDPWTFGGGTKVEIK	Fold IC50 vs H3/L3	1.13
AC10 H3.20/L3 (antibody, IgG1, name in Kabat numbering, V domains shown) VH: QIQLVQSGPEVKKPGASVKVSCKASGYTFTDYYITWVRQAPGQALEWMGWIYPGSGNTKYNEKFQGRFVFSVDTSASTAYLQISSLKAEDTAVYFCANYGNYWFAYWGQGTLVTVSS VL: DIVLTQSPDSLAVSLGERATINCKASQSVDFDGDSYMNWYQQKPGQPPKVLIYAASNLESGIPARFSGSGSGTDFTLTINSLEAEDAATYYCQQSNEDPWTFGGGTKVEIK	Fold IC50 vs H3/L3	2.04
AC10 H3.2/L3 (antibody, IgG1, name in Kabat numbering, V domains shown) VH: QLQLVQSGPEVKKPGASVKVSCKASGYTFTDYYITWVRQAPGQGLEWMGWIYPGSGNTKYNEKFQGRFVFSVDTSASTAYLQISSLKAEDTAVYFCANYGNYWFAYWGQGTLVTVSS VL: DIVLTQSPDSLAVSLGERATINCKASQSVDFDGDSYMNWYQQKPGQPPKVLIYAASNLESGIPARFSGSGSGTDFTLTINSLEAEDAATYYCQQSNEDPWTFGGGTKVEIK	Fold IC50 vs H3/L3	2.76
AC10 H3.29/L3 (antibody, IgG1, name in Kabat numbering, V domains shown) VH: QIQLVQSGPEVKKPGASVKVSCKASGYTFTDYYITWVRQAPGQGLEWMGWIYPGDGNTKYNEKFQGRFVFSVDTSASTAYLQISSLKAEDTAVYFCANYGNYWFAYWGQGTLVTVSS VL: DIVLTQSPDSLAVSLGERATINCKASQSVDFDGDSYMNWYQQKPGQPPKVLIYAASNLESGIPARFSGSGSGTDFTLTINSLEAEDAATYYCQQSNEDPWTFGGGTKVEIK	Fold IC50 vs H3/L3	1.81
AC10 H3.8/L3 (antibody, IgG1, name in Kabat numbering, V domains shown) VH: QIQLVQSGPEVKKPGASVKVSCKASGYTFTGYYITWVRQAPGQGLEWMGWIYPGSGNTKYNEKFQGRFVFSVDTSASTAYLQISSLKAEDTAVYFCANYGNYWFAYWGQGTLVTVSS VL: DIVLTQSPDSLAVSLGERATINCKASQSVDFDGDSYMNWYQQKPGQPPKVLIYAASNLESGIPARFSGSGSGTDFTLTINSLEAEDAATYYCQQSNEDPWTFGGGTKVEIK	Fold IC50 vs H3/L3	1.4
AC10 H3.63/L3 (antibody, IgG1, name in Kabat numbering, V domains shown) VH: QIQLVQSGPEVKKPGASVKVSCKASGYTFTDYYITWVRQAPGQGLEWMGWIYPGSGNTKYNEKFQGRFVFSVDTSASTAYLQISSLKAEDTAVYFCANYGNYWFAFWGQGTLVTVSS VL: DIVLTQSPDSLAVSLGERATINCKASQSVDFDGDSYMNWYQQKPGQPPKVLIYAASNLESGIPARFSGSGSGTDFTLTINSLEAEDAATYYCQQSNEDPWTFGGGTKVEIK	Fold IC50 vs H3/L3	1.24
